molecular target: Tyrosine-protein phosphatase non-receptor type 22 (Homo sapiens) (UniProt Q9Y2R2); assay: LYP phosphatase inhibitors, primary screen, biochemical, DiFMUP fluorescence, recombinant catalytic domain, 10 µM (AID 606); conditions: at 10 µM, active compounds read high
Sequence (Q9Y2R2 whole entry, looked up, the tested form may be a part): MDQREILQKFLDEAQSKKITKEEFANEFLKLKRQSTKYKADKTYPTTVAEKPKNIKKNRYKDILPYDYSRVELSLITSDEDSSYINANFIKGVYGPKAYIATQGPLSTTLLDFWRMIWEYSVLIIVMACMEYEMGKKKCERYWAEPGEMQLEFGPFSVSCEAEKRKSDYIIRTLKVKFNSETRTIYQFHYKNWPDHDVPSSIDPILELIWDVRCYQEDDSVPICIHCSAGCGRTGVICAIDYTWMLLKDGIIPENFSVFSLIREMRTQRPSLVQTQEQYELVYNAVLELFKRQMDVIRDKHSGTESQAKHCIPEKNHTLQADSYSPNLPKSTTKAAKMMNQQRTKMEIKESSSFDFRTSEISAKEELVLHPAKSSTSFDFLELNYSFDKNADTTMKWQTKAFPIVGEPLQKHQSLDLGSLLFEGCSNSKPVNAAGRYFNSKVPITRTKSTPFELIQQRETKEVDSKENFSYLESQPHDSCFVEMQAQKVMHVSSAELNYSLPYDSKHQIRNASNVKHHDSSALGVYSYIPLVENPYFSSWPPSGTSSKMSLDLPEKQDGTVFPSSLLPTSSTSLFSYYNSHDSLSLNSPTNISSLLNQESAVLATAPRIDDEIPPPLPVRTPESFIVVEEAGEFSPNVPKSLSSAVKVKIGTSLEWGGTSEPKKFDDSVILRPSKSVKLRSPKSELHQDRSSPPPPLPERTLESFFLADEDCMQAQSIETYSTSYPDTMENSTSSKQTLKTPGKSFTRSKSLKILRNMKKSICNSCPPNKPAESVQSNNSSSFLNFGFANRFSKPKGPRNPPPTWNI
Screen size: about 52,000 compounds; fewer than 10 were called active. Not all results are given here.
RECORDED ENDPOINT: inhibition (%)
Lab book: enter the figure in %, no units written.

CN1C(=O)C(O)(CC(=O)c2ccccn2)c2cc(Br)ccc21 (stereo not given)
4.59
CCOC(=O)N1CCC(n2c(=S)[nH]c3cc(OC)c(OC)cc3c2=O)CC1
-14.3
Cn1c(=O)c2c(nc(N3CCOCC3)n2Cc2c(F)cccc2Cl)n(C)c1=O
4.34
NC(=O)CN(c1ccc(Cl)cc1)S(=O)(=O)c1ccccc1
-12.5

Then this compound:
Query: State, in one line, measured inhibition of Cc1cc(NC(=O)COc2cccc(C)c2C)no1
Result: 11.1

This collection of values is drawn from PubChem BioAssay AID606.
